Biological target: murine CSF1R (Mus musculus)
Construct: Western blot analysis of total lysates (40 µg/lane) from mouse RAW264.7 cells treated as indicated; endogenous in cells; host or cells: RAW264.7 (murine macrophages)
Sequence (P09581 20-977): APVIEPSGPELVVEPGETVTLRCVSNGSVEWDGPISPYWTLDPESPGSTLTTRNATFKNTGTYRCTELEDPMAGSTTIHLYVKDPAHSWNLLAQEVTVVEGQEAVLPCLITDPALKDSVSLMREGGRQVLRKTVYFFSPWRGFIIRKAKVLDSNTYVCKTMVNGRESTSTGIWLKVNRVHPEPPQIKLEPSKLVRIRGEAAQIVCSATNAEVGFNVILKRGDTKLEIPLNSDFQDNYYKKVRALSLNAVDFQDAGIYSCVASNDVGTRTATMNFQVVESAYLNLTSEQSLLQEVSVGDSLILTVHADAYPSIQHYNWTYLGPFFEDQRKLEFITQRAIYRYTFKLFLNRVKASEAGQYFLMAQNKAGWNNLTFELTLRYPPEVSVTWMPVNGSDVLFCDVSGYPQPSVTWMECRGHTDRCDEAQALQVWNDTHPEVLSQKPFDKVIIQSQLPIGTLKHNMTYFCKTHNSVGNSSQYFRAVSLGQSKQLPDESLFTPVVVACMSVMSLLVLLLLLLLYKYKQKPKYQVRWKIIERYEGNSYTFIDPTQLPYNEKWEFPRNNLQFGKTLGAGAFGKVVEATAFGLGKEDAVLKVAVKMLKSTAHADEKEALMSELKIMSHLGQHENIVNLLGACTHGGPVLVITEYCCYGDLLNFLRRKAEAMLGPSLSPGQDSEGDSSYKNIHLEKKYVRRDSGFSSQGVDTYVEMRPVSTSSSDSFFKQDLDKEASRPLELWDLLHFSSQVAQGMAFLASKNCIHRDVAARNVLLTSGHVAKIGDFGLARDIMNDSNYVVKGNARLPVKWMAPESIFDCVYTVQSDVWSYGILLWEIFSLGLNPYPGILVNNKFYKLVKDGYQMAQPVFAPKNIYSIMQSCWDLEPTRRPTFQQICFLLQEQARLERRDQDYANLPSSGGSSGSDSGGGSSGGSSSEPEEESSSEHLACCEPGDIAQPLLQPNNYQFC
Experiment: CSF1R inhibition in RAW264.7 cells (western blot of pCSF1R)
Assay type: cell-based
Conditions: approximate value of the discussion; read-out: IC50, murine CSF1R in RAW264.7 macrophages
Measurement Type: IC50

>>> reported("CNC(=O)c1cc(Oc2ccc(NC(=O)Nc3ccc(Cl)c(C(F)(F)F)c3)c(F)c2)ccn1")
"~30 nM"

---

Target: murine CSF1R (Mus musculus, UniProt P09581)
Construct: Western blot analysis of total lysates (40 µg/lane) from mouse RAW264.7 cells treated as indicated; endogenous in cells; host or cells: RAW264.7 (murine macrophages)
Test: CSF1R inhibition in RAW264.7 cells (western blot of pCSF1R)
Format: cell-based
Details: RAW264.7 cells, drug 1 h, CSF1 100 ng/mL 2 min; mean ± SD (replicates); M-4, M-5 from pCSF1R bands without relating to total CSF1R; read-out: Mean kinase IC50 values: P(Y559)CSF1R [WB]
Procedure: RAW264.7 cells (10^6) were seeded into cell culture dishes 6 cm in diameter and incubated in 4 mL RPMI/10% fetal bovine serum (Biochrom) for 24 h at 37 °C in a humidified 5% CO2 atmosphere. Cells were washed once with phosphate-buffered saline (PBS) and starved in 3 mL RPMI/0.1% bovine serum albumin for another 24 h. […]
# IC50 annotations
Measurement Type: IC50 (µM)

>>> reported("CNC(=O)c1cc(Oc2ccc(NC(=O)Nc3ccc(Cl)c(C(F)(F)F)c3)c(F)c2)ccn1")
0.059
>>> reported("CNC(=O)c1cc(Oc2ccc(NC(=O)Nc3ccc(Cl)c(C(F)(F)F)c3)c(F)c2)cc[n+]1[O-]")
0.066
>>> reported("NC(=O)c1cc(Oc2ccc(NC(=O)Nc3ccc(Cl)c(C(F)(F)F)c3)c(F)c2)ccn1")
0.273
>>> reported("NC(=O)c1cc(Oc2ccc(NC(=O)Nc3ccc(Cl)c(C(F)(F)F)c3)c(F)c2)cc[n+]1[O-]")
0.019
